Data provenance is PubChem BioAssay AID1159580.

Experiment: chemical genetic growth profiling, strain panel (AID 1159580);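 note: tested at 20 µM; growth read once vehicle control cultures reached saturation at 30 °C; 1 = growth at the plate median or of vehicle wells; lower values mean less growth of the strain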
Details: S. cerevisiae deletion strains, growth OD, locus YBR229C, strain ROT2, hits give low values
The whole screen tested about 5,500 compounds, of which about 2,000 (36%) were called active. Roughly 18% stayed inconclusive and do not appear here. Some of the results follow.
# Lookup of reported normalized growth keyed by entry
Just the number, please, no unit after it.

Solved cases below.
- compound: "NCC1CCC(C(=O)O)CC1 (stereo not given)"
  normalized growth: 1
- compound: "CC(C)(OC(=O)c1ccccc1)[C@@H]1Cc2cc3ccc(=O)oc3cc2O1"
  normalized growth: 0.986
- compound: "COc1cc(NC(C)CCCN)c2ncccc2c1 (stereo not given)"
  normalized growth: 1
- compound: "COc1cc2c(cc1OC)C1C(=O)c3c(O)cc4c(c3OC1CO2)C=CC(C)(C)O4 (stereo not given)"
  normalized growth: 1
- compound: "COc1ccc2c(c1)OCc1c-2oc2cc(OC)ccc12"
  normalized growth: 0.997
- compound: "CC(C)CC(NC(=O)C(Cc1ccccc1)NC(=O)CNC(=O)CNC(=O)C(N)Cc1ccc(O)cc1)C(=O)O (stereo not given)"
  normalized growth: 0.95

Ask: Endpoint output: normalized growth of C=C1C2CC[C@H]3[C@]4(C)C[C@H](OC5OC(CO)C(OS(=O)(=O)O)C(OS(=O)(=O)O)C5OC(=O)CC(C)C)C[C@@H](C(=O)O)[C@H]4CC[C@]3(C2)[C@H]1O (stereo not given in full) . Value?
Reply: 1.01

Ask: Looking for the measured normalized growth of `CCO/C=C1\SC(=S)N(CCc2ccccc2)C1=O` , can you help?
Reply: 0.898

Ask: Need normalized growth of COc1cc2c(cc1OC)C1C(=O)c3c(OC)cc4c(c3OC1CO2)CCC(C)(C)O4 (stereo not given) , thanks.
Reply: 1.02

Ask: // lookup normalized growth for `COc1ccc2c(C)cc(=O)oc2c1`
Reply: 1.01
